Target entity: hPAD4 (Homo sapiens, UniProt Q9UM07)
Sequence (Q9UM07 whole entry): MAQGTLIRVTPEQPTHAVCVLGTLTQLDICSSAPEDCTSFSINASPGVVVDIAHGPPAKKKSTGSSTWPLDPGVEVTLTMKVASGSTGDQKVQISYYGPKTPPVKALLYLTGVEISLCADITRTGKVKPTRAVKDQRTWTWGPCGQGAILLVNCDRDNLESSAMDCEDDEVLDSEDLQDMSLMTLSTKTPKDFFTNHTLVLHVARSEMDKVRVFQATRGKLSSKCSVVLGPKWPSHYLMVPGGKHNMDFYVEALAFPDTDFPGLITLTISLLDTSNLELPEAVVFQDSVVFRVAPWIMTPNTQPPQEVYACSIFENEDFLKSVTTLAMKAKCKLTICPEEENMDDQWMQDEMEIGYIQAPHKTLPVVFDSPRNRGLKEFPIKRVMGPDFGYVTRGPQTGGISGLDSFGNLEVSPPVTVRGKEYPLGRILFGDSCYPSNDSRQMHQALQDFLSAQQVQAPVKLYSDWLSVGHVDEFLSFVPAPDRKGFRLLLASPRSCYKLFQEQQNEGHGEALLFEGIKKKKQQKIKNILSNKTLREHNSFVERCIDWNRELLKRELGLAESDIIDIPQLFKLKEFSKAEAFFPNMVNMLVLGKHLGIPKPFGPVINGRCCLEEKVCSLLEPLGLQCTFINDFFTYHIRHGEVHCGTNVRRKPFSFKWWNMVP
Test: hPAD4 RFMS (RapidFire mass spectrometry) PAD4 inhibition assay;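 further: grade E means pIC50 at most 4 and F means pIC50 4.0 to 5.0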
Type: biochemical
Condition info: hPAD4 enzyme, RFMS readout; pIC50=−log(IC50); read-out: hPAD4 RFMS pIC50 (converted)
Counter-ions that a name gives are not always drawn.
Below is a list of entries, each paired with its recorded IC50 value.

// solved cases for IC50 follow
Compound	Property measured	Reported
COc1cc(C(=O)N2C[C@H]3CC[C@H]2[C@H]3N)cc2nc(-c3cc4cc(/C=C/c5ccc(C(F)(F)F)cc5)ccc4n3CC3CC3)n(C)c12	IC50	< 1 µM
COc1cc(C(=O)N2CC3(CNCCO3)C2)cc2nc(-c3cc4cccnc4n3CC3CC3)n(C)c12	IC50	> 100 µM
COc1ccc2cc(-c3nc4cc(C(=O)N5C[C@H](N)C[C@@H](F)C5)cc(OC)c4n3C)n(CC3CC3)c2n1	IC50	< 1 µM
COc1cc(C(=O)N2CCC[C@@H](N)C2)cc2nc(-c3cc4cnc(C)nc4n3CC3CC3)n(C)c12	IC50	< 1 µM
Cn1c(-c2cc3cccnc3n2CC2CC2)nc2cc(C(=O)N3C[C@@H](N)C[C@H](F)C3)ccc21	IC50	1 to 10 µM

Field request: IC50 | item: COc1cc(C(=O)N2C[C@H]3CC[C@@H]2[C@@H]3N)cc2nc(-c3cc4cnc(C)nc4n3CC3CC3)n(C)c12
< 1 µM

Another compound: CCn1c(-c2nc3cc(C(=O)N4C[C@H]5CC[C@@H]4[C@@H]5N)cc(OC)c3n2C)cc2cccnc21 (racemic) [Compound I-143]
< 1 µM

Another compound: Cn1c(-c2cc3cccnc3n2CC2CC2)nc2cc(C(=O)N3CCCC4(CCNC4)C3)ccc21 (stereo not drawn)
> 100 µM

Another compound: COc1cc(C(=O)N2CC3CC(N)C2C3)cc2nc(-c3cc4cccnc4n3CC3CC3)n(C)c12 (racemic)
> 100 µM

Another compound: COc1cc(C(=O)N2CCCC3(CNC3)C2)cc2nc(-c3cc4cccnc4n3CC3CC3)n(C)c12
> 100 µM

Another compound: COc1cc(C(=O)N2CCC[C@@H](N)C2)cc2nc(-c3cc4cccnc4n3[C@H](C)C3CC3)n(C)c12
1 to 10 µM

Another compound: Cn1c(-c2cc3cccnc3n2CC2CC2)nc2cc(C(=O)N3CCC4(CCCN4)C3)ccc21 (stereo not drawn)
10 to 100 µM

Another compound: COc1cc2c(cc1C(=O)N1CCC[C@@H](N)C1)nc(-c1cc3cccnc3n1CC1CC1)n2C [Compound I-68, hydrochloride]
1 to 10 µM

Another compound: COCCn1c(-c2cc3cccnc3n2CC2CC2)nc2cc(C(=O)N3CCC[C@@H](N)C3)cc(OC)c21
1 to 10 µM

Another compound: COc1cc(C(=O)N2C[C@H]3CC[C@@H]2[C@@H]3N)cc2nc(-c3cc4cccnc4n3CC3CC3)n(C[C@H]3C[C@@](C)(OC)C3)c12
< 1 µM

* * *

Target entity: mPAD4 (Mus musculus, UniProt Q9Z183)
Sequence (Q9Z183 whole entry): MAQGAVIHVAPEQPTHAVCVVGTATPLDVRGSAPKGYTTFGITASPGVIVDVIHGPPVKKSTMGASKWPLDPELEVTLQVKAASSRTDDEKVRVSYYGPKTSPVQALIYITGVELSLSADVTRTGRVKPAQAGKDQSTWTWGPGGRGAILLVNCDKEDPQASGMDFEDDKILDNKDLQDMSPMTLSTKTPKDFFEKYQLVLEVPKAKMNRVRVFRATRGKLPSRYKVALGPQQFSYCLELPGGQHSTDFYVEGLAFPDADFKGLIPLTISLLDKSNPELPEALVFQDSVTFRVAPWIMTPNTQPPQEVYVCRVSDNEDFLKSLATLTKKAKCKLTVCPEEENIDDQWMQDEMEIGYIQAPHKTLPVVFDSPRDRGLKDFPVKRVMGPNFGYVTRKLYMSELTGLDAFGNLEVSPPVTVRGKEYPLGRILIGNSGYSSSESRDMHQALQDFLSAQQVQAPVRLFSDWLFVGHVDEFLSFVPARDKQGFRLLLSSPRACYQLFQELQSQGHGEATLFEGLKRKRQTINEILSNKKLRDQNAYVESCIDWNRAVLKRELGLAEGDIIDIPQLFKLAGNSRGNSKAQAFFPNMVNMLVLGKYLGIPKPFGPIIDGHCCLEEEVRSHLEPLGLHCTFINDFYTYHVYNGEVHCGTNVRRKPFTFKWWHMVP
Test: mPAD4 RFMS PAD4 inhibition assay
Format: biochemical
Condition info: mPAD4, RFMS readout; read-out: mPAD4 RFMS IC50
Property measured: IC50

// solved cases for IC50 follow
Molecule	Reported
COc1cc(C(=O)N2CC3(CCCNC3)C2)cc2nc(-c3cc4cccnc4n3CC3CC3)n(C)c12	1 to 5 µM
CCn1c(-c2nc3cc(C(=O)N4C[C@H]5CC[C@@H]4[C@@H]5N)cc(F)c3n2C)cc2cccnc21	1 to 5 µM
[2H]C([2H])([2H])OC1(C)CC(Cn2c(-c3cc4cccnc4n3CC3CC3)nc3cc(C(=O)N4C[C@H]5CC[C@@H]4[C@@H]5N)cc(OC)c32)C1 (stereo partly shown)	< 1 µM

Lab request: please report IC50 under test system mPAD4 (Mus musculus, UniProt Q9Z183) for COc1cc(C(=O)N2CC[C@H]3CCN[C@H]3C2)cc2nc(-c3cc4cccnc4n3CC3CC3)n(C)c12
> 10 µM

Another molecule: Cn1c(-c2cc3cccnc3n2CC2CC2)nc2cc(C(=O)N3C[C@H]4CC[C@@H]3[C@@H]4N)cc(F)c21
1 to 5 µM

Another molecule: COc1cc(C(=O)N2CC3COCC3(CN)C2)cc2nc(-c3cc4cccnc4n3CC3CC3)n(C)c12 (racemic)
> 10 µM

Another molecule: COc1cc(C(=O)N2C[C@@H](N)CC[C@H]2C)cc2nc(-c3cc4cccnc4n3CC3CC3)n(C)c12
< 1 µM
